Values from patent US11214803B2

Exercise: state measured YAP1 (% UTC) for each of the substances provided.
- System: Yap1 mRNA
- protocol-details: Antisense inhibition of human Yap1 in A-431 cells by cEt gapmers, single dose (Example 3, RTS36584)
- Assay type: cell-based
- measurement-parameters: Table 29; Yap1 mRNA as percent of untreated control; 3-10-3 cEt gapmers targeting SEQ ID NO.: 1, and 2
- Protocol: Modified oligonucleotides were designed to target a Yap1 nucleic acid and were tested for their effect on Yap1 mRNA level in vitro. The modified oligonucleotides were tested in a series of experiments that had similar culture conditions. […] After a treatment period of approximately 48 hours, RNA was isolated from the cells and Yap1 mRNA levels were measured by quantitative real-time RTPCR. […] Yap1 mRNA levels were normalized to total RNA content, as measured by RIBOGREEN®. […]
Strand notation (5' to 3'): a small letter for the sugar, then the base; units joined by * are phosphorothioate-linked, units joined directly phosphodiester-linked; [ ] holds rarer units or linkages, { } end groups; capitals alone tell only the bases. k = constrained ethyl (cEt); [5mC] = 5-methylcytosine; d = 2'-deoxy (DNA)
Answers without a unit are incomplete; give the number and then its unit.

The following substances each have a reported value; give each one's YAP1 (% UTC).
1. 1075855 (antisense kG*kA*kT*dT*dT*dT*dT*dA*dG*dG*d[5mC]*dA*dG*kA*k[5mC]*kG) [compound 1075855]
2. 1075439 (antisense kA*kA*kT*dT*dA*dG*dA*dG*dA*dT*dA*dT*dG*kG*kA*k[5mC]) [compound 1075439]
3. 1075279 (antisense k[5mC]*kT*kA*dT*dA*d[5mC]*dT*dA*dA*d[5mC]*dA*dT*dT*k[5mC]*kA*k[5mC]) [compound 1075279]
4. 1074415 (kG*k[5mC]*k[5mC]*dA*dA*d[5mC]*dT*dG*dT*dG*dA*dA*dA*kG*kA*kG; antisense) [compound 1074415]
5. 1075791 (k[5mC]*kT*kT*dT*dA*dT*d[5mC]*dA*dG*d[5mC]*d[5mC]*dA*dT*k[5mC]*kA*k[5mC]; antisense) [compound 1075791]
6. 1075567 (kG*kA*kT*dA*dT*dA*dT*dA*dA*d[5mC]*dA*dG*dG*k[5mC]*k[5mC]*kA; antisense) [compound 1075567]

Return:
1. 7 % UTC
2. 77 % UTC
3. 52 % UTC
4. 10 % UTC
5. 10 % UTC
6. 65 % UTC

###

- Test system: Yap1 mRNA
- protocol-details: Antisense inhibition of human Yap1 in A-431 cells by cEt gapmers, single dose (Example 4, RTS4814)
- Format: cell-based
- measurement-parameters: Table 15; A-431 cells, 5,000 cells per well, free uptake, 2,000 nM, approximately 48 hours; RTS4814; normalized to RIBOGREEN; Yap1 mRNA relative to untreated control; * = targets amplicon region of primer probe set
Strand notation (5' to 3'): a small letter for the sugar, then the base; units joined by * are phosphorothioate-linked, units joined directly phosphodiester-linked; [ ] holds rarer units or linkages, { } end groups; capitals alone tell only the bases. k = constrained ethyl (cEt); [5mC] = 5-methylcytosine; d = 2'-deoxy (DNA)
Exercise: state measured YAP1 (% UTC) for each of the substances provided.
One number for each entry, in % UTC.

For orientation, consider the following solved cases.
// 1074497 (k[5mC]*kA*kA*dT*dA*dA*d[5mC]*d[5mC]*dA*dT*d[5mC]*d[5mC]*d[5mC]*kA*kA*kG; antisense) [Compound 1074497] : YAP1 (% UTC) value = 26

// 1074689 (antisense k[5mC]*kT*k[5mC]*d[5mC]*d[5mC]*d[5mC]*d[5mC]*dT*dA*dA*dG*d[5mC]*dT*kA*kA*kA) [Compound 1074689] : YAP1 (% UTC) value = 70

// 1074657 (antisense kT*k[5mC]*k[5mC]*d[5mC]*d[5mC]*d[5mC]*d[5mC]*dA*dG*dA*d[5mC]*dT*dT*kA*kA*kT) [Compound 1074657] : YAP1 (% UTC) value = 59

// 1075521 (kA*kA*kA*dT*d[5mC]*dG*dA*dG*dG*d[5mC]*dG*dA*dA*kT*k[5mC]*kT; antisense) [Compound 1075521] : YAP1 (% UTC) value = 65

The following substances each have a reported value; give each one's YAP1 (% UTC).
1. 1075137 (antisense kG*kA*kT*dT*dA*dA*dA*dT*dA*d[5mC]*dT*dG*dA*k[5mC]*k[5mC]*kA) [Compound 1075137]
2. 1074465 (kA*kA*kT*d[5mC]*dT*dA*dT*dA*dT*dT*dA*dG*dA*kG*kT*kA; antisense) [Compound 1074465]

Return:
1. 3
2. 44
